Overview of reported GI50 across a group of compounds:
# Tested on: SK-OV-3 ovarian
# EXPERIMENT_NOTES: NCI tumour cell line growth inhibition, 48 h

Here's what some known entries look like.
INSERT INTO assay_data (compound, parameter_measured, result) VALUES
  ('O=C1NC(=O)/C(=C\c2ccccc2)C2=C1CCCC2', 'GI50', '14.6 µM'),
  ('O=C(CSC1CCc2ccccc21)N/N=C/c1ccccc1O (stereo unspecified)', 'GI50', '11.5 µM'),
  ('Cc1cc(C)c(NC(=O)c2sc3nc4c(cc3c2N)CN(Cc2ccccc2)CC4)c(C)c1', 'GI50', '5.35 µM'),
  ('CC(C)(S)C(N)C(=O)O (stereo unspecified)', 'GI50', '2600 µM'),
  ('CCCOc1ccc2sc(NC(=O)OC)nc2c1', 'GI50', '4.36 µM');

Prompt line: Please report GI50 for the following compound: `O=C1c2ccccc2-c2c1c1ccccc1c(=O)n2CCCCl`
Response line: 19.1 µM
